Target: Metabotropic glutamate receptor 4 (Rattus norvegicus)
Test: rat mGlu4 modulators, glutamate EC50 fold shift, SAR follow-up, mGlu4 lead optimization, HEK/GIRK cells, thallium flux (AID 623889)
Settings: at 30 µM, stronger effect = higher value
Quick reference for fold shift among some compounds
Lab note: record the figure alone, no unit after it.

>>> result("COc1cc(Nc2noc3cccnc23)ccc1Cl")
6.67
>>> result("Fc1cccc(Nc2noc3cccnc23)c1")
8.9
>>> result("O=C(Nc1cccc(Cl)c1)c1ccccn1")
30.2
>>> result("O=C(Nc1ccc2cn[nH]c2c1)c1ccccn1")
11.9
>>> result("COc1cc2nc(-c3ccccn3)[nH]c2cc1Cl")
3.21

Param readout= fold shift; system= Metabotropic glutamate receptor 4 (Rattus norvegicus); entry= `CC(C)N(C(=O)c1ccccn1)c1cccc(Cl)c1` ; returns value.
3.16

Check `O=C(Nc1ccc2c(c1)C(=O)NC2=O)c1ccccn1` too.
2.52

Check `Clc1cccc(Nc2ncnc3cccnc23)c1` too.
4.02

Check `Clc1ccc2nc(-c3ccccn3)[nH]c2c1` too.
15.3

###

Quick reference for glutamate max response among some compounds
Molecular target: Metabotropic glutamate receptor 4 (Rattus norvegicus) (UniProt P31423)
Sequence (P31423 whole entry, looked up): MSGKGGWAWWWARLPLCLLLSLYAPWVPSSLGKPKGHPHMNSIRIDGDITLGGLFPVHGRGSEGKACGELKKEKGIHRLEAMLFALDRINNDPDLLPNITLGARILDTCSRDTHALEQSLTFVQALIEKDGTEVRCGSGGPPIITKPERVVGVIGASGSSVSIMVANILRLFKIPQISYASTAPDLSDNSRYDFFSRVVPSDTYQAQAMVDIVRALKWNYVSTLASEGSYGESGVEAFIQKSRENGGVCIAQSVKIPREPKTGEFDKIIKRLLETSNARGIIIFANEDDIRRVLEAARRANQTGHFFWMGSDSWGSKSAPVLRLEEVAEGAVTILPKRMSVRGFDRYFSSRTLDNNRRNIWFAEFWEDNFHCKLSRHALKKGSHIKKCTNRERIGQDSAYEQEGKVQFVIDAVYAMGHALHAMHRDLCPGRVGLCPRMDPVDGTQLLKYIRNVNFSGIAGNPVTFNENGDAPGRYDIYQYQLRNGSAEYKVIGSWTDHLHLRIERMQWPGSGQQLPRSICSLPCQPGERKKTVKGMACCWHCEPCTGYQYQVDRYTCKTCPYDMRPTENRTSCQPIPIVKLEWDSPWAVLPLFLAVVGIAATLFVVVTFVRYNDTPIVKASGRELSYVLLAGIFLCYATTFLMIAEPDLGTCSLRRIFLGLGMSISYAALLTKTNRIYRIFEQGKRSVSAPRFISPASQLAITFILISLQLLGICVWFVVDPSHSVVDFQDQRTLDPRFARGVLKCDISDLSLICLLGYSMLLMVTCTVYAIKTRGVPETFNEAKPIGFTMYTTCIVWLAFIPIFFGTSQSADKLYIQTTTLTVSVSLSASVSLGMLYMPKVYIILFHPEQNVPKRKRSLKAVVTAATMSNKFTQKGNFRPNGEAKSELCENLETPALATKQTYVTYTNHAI
Assay: rat mGlu4 modulators, glutamate EC50 fold shift, SAR follow-up, mGlu4 lead optimization, HEK/GIRK cells, thallium flux (AID 623889)
Conditions: measured here: glutamate maximal response with compound, at 30 µM, stronger effect = higher value
// units = %; emit number, no label

>>> result("O=C(Nc1cccc(Cl)c1)c1ccccn1")
88.8
>>> result("Clc1ccc2nc(-c3ccccn3)[nH]c2c1")
87.2
>>> result("CC(C)N(C(=O)c1ccccn1)c1cccc(Cl)c1")
108
>>> result("O=C(Nc1ccc2c(c1)C(=O)NC2=O)c1ccccn1")
105

Reported glutamate max response, compound `Clc1cccc(Nc2ncnc3cccnc23)c1` : ____
87.2

Check `Fc1cccc(Nc2noc3cccnc23)c1` too.
93.6

Check `COc1cc(Nc2noc3cccnc23)ccc1Cl` too.
84.3

Check `O=C(Nc1ccc2cn[nH]c2c1)c1ccccn1` too.
103

Check `COc1cc2nc(-c3ccccn3)[nH]c2cc1Cl` too.
90.9
